Biological target: Vitamin D3 receptor (Homo sapiens) (UniProt P11473)
Sequence (P11473 whole entry, looked up): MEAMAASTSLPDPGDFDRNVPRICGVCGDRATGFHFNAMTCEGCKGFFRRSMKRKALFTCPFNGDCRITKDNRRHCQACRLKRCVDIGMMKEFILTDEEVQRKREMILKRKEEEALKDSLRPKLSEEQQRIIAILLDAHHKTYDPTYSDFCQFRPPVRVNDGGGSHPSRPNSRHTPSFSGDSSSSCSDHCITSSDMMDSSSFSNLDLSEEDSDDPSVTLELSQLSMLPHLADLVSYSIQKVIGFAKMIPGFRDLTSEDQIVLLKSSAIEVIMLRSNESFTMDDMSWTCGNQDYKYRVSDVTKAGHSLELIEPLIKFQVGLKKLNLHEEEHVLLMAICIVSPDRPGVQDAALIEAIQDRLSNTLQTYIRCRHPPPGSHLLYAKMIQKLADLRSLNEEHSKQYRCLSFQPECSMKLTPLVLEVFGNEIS
Test: qHTS assay to identify small molecule agonists of the vitamin D receptor (VDR) signaling pathway (AID 743222)
Details: HEK293T VDR-UAS-bla, beta-lactamase FRET ratio, 16 h; series mostly up to 63.5 µM
Inconclusive results are not listed. Active and inactive are the calls of the source. Calls come from the whole dose curve.
measurement-kind: outcome

Example compounds with recorded outcome:
>  <compound>
NS(=O)(=O)c1cc2c(cc1Cl)NC=NS2(=O)=O

>  <tested-target>
Vitamin D3 receptor (Homo sapiens) (UniProt P11473)

>  <outcome>
inactive

$$$$
>  <compound>
c1ccc2ccccc2c1

>  <tested-target>
Vitamin D3 receptor (Homo sapiens) (UniProt P11473)

>  <outcome>
inactive

$$$$
>  <compound>
OCC#CCO

>  <tested-target>
Vitamin D3 receptor (Homo sapiens) (UniProt P11473)

>  <outcome>
inactive

$$$$
>  <compound>
CC(C)NCC(O)COc1cccc2ccccc12 (centres undefined)

>  <tested-target>
Vitamin D3 receptor (Homo sapiens) (UniProt P11473)

>  <outcome>
inactive

$$$$
>  <compound>
CCC(=O)O

>  <tested-target>
Vitamin D3 receptor (Homo sapiens) (UniProt P11473)

>  <outcome>
inactive

$$$$

Now for another entry.
Task: Query: outcome; subject: COC(=O)c1ccccc1O
Result: inactive
